The origin of these recorded values is the supplement of paper PMC9112550.

# Tested on: Escherichia coli TOP10;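 also: peptides expressed intracellularly from a pBAD plasmid library in pooled LB shake-flask culture, induced with 0.3% L-arabinose, DNA abundance read by NGS, three biological replicates, DESeq2 with apeglm shrinkage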
# assay explanation: shrunken log2 fold change of peptide-encoding DNA abundance (4.5 h post-induction vs induction); higher = less antimicrobial activity (less host growth inhibition)
# test settings: time post-induction: 4.5 h; library: site-saturation at positions 5, 18, 19, 20
measured quantity: shrunken log2 fold change
One number for each entry.

Below: 5 sequences and their reported shrunken log2 fold change.
[
  {
    "biopolymer sequence": "RRIRYRPPRLPRPRPRPYKIPRP",
    "shrunken log2 fold change": -0.573
  },
  {
    "biopolymer sequence": "RRIRQRPPRLPRPRPRPSNSPRP",
    "shrunken log2 fold change": -0.294
  },
  {
    "biopolymer sequence": "RRIRGRPPRLPRPRPRPQTSPRP",
    "shrunken log2 fold change": 0.407
  },
  {
    "biopolymer sequence": "RRIRCRPPRLPRPRPRPIHKPRP",
    "shrunken log2 fold change": -0.638
  },
  {
    "biopolymer sequence": "RRIRQRPPRLPRPRPRPTHPPRP",
    "shrunken log2 fold change": 0.374
  }
]

Quick one: give me shrunken log2 fold change for each item below, same order please.
1. RRIRVRPPRLPRPRPRPDPSPRP
2. RRIRVRPPRLPRPRPRPGTAPRP
3. RRIRHRPPRLPRPRPRPHEDPRP
4. RRIRMRPPRLPRPRPRPRTGPRP
5. RRIRWRPPRLPRPRPRPSACPRP
6. RRIRARPPRLPRPRPRPKMPPRP
7. RRIRRRPPRLPRPRPRPYRDPRP
8. RRIRYRPPRLPRPRPRPRDLPRP

Key:
1: 0.226; 2: 0.136; 3: 0.0316; 4: 0.561; 5: 0.382; 6: 0.114; 7: -0.111; 8: -0.372
